Attribution: patent US20240132578A1

# Experimental Target: HIV-1 Env of isolate 93TH305 (subtype B) (HIV-1)
# Procedure Summary: cell-based or functional assay
Readout Name: IC50 (µg/mL), pseudovirus neutralization

Ask | Which measured IC50 (µg/mL), pseudovirus neutralization value corresponds to PGT-137 (antibody, V domains shown) VH: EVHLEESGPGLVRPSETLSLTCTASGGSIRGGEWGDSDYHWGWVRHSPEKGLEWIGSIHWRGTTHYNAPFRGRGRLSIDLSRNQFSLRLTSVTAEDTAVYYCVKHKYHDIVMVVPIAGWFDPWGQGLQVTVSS VL: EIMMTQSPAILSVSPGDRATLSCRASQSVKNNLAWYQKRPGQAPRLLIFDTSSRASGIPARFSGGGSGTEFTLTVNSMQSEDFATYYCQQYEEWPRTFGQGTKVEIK ?
Reply | > 50 µg/mL

Ask | Which measured IC50 (µg/mL), pseudovirus neutralization value corresponds to PGT-128 (antibody, V domains shown) VH: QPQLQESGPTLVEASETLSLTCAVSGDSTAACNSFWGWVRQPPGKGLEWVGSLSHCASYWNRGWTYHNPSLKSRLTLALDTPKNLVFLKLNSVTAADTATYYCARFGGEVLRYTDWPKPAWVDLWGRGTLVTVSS VL: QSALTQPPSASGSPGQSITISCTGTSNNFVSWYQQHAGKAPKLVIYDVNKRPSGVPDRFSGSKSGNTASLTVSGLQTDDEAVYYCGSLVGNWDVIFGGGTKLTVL ?
Reply | 0.006 µg/mL

Ask | Which measured IC50 (µg/mL), pseudovirus neutralization value corresponds to PGT-135 (antibody, V domains shown) VH: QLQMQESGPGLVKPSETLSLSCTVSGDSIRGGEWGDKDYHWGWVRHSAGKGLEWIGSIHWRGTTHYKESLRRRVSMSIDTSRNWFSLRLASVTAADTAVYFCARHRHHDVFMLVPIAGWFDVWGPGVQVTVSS VL: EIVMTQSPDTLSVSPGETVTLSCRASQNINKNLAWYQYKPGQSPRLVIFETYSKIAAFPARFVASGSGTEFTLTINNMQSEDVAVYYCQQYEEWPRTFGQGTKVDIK ?
Reply | > 50 µg/mL
